target: CDK4 (Homo sapiens, UniProt P11802); construct: endogenous in cells; assay: CDK4 degradation (DC50, Dmax); assay type: cell-based
Sequence (P11802 whole entry): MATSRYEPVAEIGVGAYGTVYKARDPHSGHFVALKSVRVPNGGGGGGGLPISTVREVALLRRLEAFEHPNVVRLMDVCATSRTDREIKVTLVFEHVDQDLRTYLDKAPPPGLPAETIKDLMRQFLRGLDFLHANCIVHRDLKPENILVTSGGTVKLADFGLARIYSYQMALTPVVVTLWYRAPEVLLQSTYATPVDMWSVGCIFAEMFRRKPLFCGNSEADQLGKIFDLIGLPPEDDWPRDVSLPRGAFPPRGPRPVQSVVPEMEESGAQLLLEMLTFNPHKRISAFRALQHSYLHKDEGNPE
Dmax values by entry

Take a look at these entries with their results.
CC(=O)c1c(C)c2cnc(Nc3ccc(N4CCN(C(=O)CNc5ccc6c(c5)C(=O)N(C5CCC(=O)NC5=O)C6=O)CC4)cn3)nc2n(C2CCCC2)c1=O (stereo not drawn)	> 60%
CC(=O)c1c(C)c2cnc(Nc3ccc(N4CCN(C5CCN(C(=O)Nc6ccc7c(c6)CN(C6CCC(=O)NC6=O)C7=O)CC5)CC4)cn3)nc2n(C2CCCC2)c1=O (stereo not drawn)	> 60%
Cc1nc2c(F)cc(-c3nc(Nc4ccc(CN5CCN(C(=O)C6CN(c7ccc8c(c7)CN(C7CCC(=O)NC7=O)C8=O)C6)CC5)cn4)ncc3F)cc2n1C(C)C (stereo not drawn)	> 80%
Cc1nc2c(F)cc(-c3nc(Nc4ccc(CN5CCN(CC6CCN(c7ccc(NC8CCC(=O)NC8=O)cc7)CC6)CC5)cn4)ncc3F)cc2n1C(C)C (stereo not drawn)	> 80%

Qu. # lookup: Dmax of CC(=O)c1c(C)c2cnc(Nc3ccc(N4CCN(CC5CCN(C(=O)N6CCC(c7ccc8c(c7)CN(C7CCC(=O)NC7=O)C8=O)CC6)CC5)CC4)cn3)nc2n(C2CCCC2)c1=O (stereo not drawn)
Ans. > 50%

Qu. What would you report for Cc1nc2c(F)cc(-c3nc(Nc4ccc(CN5CCN(C(=O)C6CCN(c7ccc(NC8CCC(=O)NC8=O)cc7)CC6)CC5)cn4)ncc3F)cc2n1C(C)C (stereo not drawn) ?
Ans. > 60%

Qu. What would you report for Cc1nc2c(F)cc(-c3nc(Nc4ccc(CN5CCN(CCNc6cccc7c6C(=O)N(C6CCC(=O)NC6=O)C7=O)CC5)cn4)ncc3F)cc2n1C(C)C (stereo not drawn) ?
Ans. > 80%

Qu. What would you report for CC(=O)c1c(C)c2cnc(Nc3ccc(N4CCN(CCN5CCC(c6ccc7c(c6)C(=O)N(C6CCC(=O)NC6=O)C7=O)CC5)CC4)cn3)nc2n(C2CCCC2)c1=O (stereo not drawn) ?
Ans. > 60%

Qu. What would you report for CC(=O)c1c(C)c2cnc(Nc3ccc(N4CCN(CCCN(C)c5ccc6c(c5)C(=O)N(C5CCC(=O)NC5=O)C6=O)CC4)cn3)nc2n(C2CCCC2)c1=O (stereo not drawn) ?
Ans. > 60%
